TARGET SYSTEM: NAMPT (Homo sapiens (Human))
Sequence (P43490 whole entry): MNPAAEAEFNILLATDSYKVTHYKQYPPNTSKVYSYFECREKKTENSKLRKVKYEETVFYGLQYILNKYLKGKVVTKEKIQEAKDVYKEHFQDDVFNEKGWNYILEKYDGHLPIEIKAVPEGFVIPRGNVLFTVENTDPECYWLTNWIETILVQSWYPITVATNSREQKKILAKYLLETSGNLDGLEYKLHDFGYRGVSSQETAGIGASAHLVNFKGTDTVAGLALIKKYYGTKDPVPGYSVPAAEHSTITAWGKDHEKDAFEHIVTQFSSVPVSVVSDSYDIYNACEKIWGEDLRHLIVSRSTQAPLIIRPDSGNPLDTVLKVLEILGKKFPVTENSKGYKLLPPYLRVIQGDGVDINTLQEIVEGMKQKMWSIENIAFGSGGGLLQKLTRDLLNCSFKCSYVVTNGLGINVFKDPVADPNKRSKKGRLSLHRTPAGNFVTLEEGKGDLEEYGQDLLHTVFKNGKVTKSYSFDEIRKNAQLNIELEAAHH
ASSAY SUMMARY: Biochemical Inhibition Assay (NAMPT enzymatic reaction, NMN quantified by mass spectrometry)
REPORTED CONDITIONS: recombinant His-tagged NAMPT, 33 nM; 1 μM NAM; read-out: Biochem IC50
pIC50: −log10 of the molar value.

{"COMPOUND SMILES": "CC(C)COc1cccc(S(=O)(=O)c2ccc(NC(=O)/C=C/c3cccnc3)cc2)c1", "TARGET SYSTEM": "NAMPT (Homo sapiens (Human))", "pIC50": 7.25}
{"COMPOUND SMILES": "COc1cc(S(=O)(=O)c2ccc(NC(=O)/C=C/c3cccnc3)cc2)ccc1Cl", "TARGET SYSTEM": "NAMPT (Homo sapiens (Human))", "pIC50": 7.58}
{"COMPOUND SMILES": "O=C(/C=C/c1cccnc1)Nc1ccc(S(=O)(=O)c2ccc(Cl)c(C(F)(F)F)c2)cc1", "TARGET SYSTEM": "NAMPT (Homo sapiens (Human))", "pIC50": 7.74}
{"COMPOUND SMILES": "CCCOc1ccc(S(=O)(=O)c2ccc(NC(=O)/C=C/c3cccnc3)cc2)cc1Cl", "TARGET SYSTEM": "NAMPT (Homo sapiens (Human))", "pIC50": 8.25}
{"COMPOUND SMILES": "O=C(/C=C/c1cccnc1)Nc1ccc(S(=O)(=O)c2cccc(-n3cccn3)c2)cc1", "TARGET SYSTEM": "NAMPT (Homo sapiens (Human))", "pIC50": 8.32}
